Target: U2AF65 1,2 MUT (Homo sapiens, UniProt P26368 148-336, D293N;K329Q;L331K;Q333E)
Sequence (P26368 148-336 D293N/K329Q/L331K/Q333E, one chain of several): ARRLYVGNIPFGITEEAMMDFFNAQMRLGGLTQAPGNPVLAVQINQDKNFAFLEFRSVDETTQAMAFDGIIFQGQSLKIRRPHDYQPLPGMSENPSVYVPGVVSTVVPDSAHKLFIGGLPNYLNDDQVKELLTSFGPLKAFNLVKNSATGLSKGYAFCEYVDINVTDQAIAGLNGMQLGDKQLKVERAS
Experiment: SPR
Reported Kd is given for each of the following binders.

>  <Binder>
CCCCCCCUUUUCC (ssRNA) [3'-4rU]

>  <Kd>
12.5 µM

$$$$
>  <Binder>
CCUUUUCCCCCCC (ssRNA) [5'-4rU]

>  <Kd>
14 µM

$$$$
